# System: HCV 1b_Huh-Luc/Neo-ET cell line persistently expressing a bicistronic genotype 1b replicon in Huh 7 cells
# Measurement Description: HCV replicon assay (luciferase readout, 72 h)
# Assay type: cell-based, HCV genotype 1b
# Test Conditions: Hepatitis C virus, Huh-7, 72 h, read-out: Inhibition of HCV genotype 1b
# Description: Biological activity of the compounds of the invention was determined using an HCV replicon assay. The HCV 1b_Huh-Luc/Neo-ET cell line persistently expressing a bicistronic genotype 1b replicon in Huh 7 cells was obtained from ReBLikon GMBH. This cell line was used to test compound inhibition using luciferase enzyme activity readout as a measurement of compound inhibition of replicon levels. […] The EC50 value was determined using GraphPad Prism and the following equation: […]
pEC50: −log10 of the molar value.
Each entry below carries its reported pEC50.

Worked examples follow.
Compound	pEC50
COC(=O)N[C@@H](C(=O)N1CCC[C@H]1c1ncc(-c2ccc(C#Cc3ccc(-c4cnc([C@@H]5CCCN5C(=O)OCc5ccccc5)[nH]4)cc3)cc2)[nH]1)c1ccccc1 [Compound 200]	> 9.00
O=S(=O)(Cc1ccccc1)N1CCC[C@H]1c1ncc(-c2ccc(C#Cc3ccc4nc([C@@H]5CCCN5S(=O)(=O)Cc5ccccc5)[nH]c4c3)cc2)[nH]1 [Compound 1042]	< 6.00

input: Value lookup for pEC50; key = COC(=O)NC(C(=O)N1CCC[C@H]1c1nc2ccc(C#Cc3ccc4cc(-c5cnc([C@@H]6CCCN6C(=O)[C@@H](NC(=O)OC)C(C)C)[nH]5)ccc4n3)cc2[nH]1)C(C)C (stereo partly drawn) [Compound 1107]
output: > 9.00

input: // query pEC50 value for entry CN1CCC(C(=O)N[C@@H](C(=O)N2CCC[C@H]2c2cc(-c3ccc(C#Cc4ccc(-c5cnc([C@@H]6CCCN6C(=O)[C@H](NC(=O)C6CCN(C)CC6)c6ccccc6)[nH]5)cc4)cc3)n[nH]2)c2ccccc2)CC1 [Compound 223-1]
output: > 9.00

input: // query pEC50 value for entry COC(=O)N[C@@H](C(=O)N1CCC[C@H]1c1ncc(C#Cc2ccc3nc([C@@H]4CCCN4C(=O)[C@H](NC(=O)OC)c4ccccc4)[nH]c3c2)[nH]1)c1ccccc1 [Compound 700]
output: > 9.00
